- target: H1 HA (Influenza A virus, UniProt C3W5S1); note: test concentration or dose not given here
- Sequence (C3W5S1 entry or part of it, added parts left off): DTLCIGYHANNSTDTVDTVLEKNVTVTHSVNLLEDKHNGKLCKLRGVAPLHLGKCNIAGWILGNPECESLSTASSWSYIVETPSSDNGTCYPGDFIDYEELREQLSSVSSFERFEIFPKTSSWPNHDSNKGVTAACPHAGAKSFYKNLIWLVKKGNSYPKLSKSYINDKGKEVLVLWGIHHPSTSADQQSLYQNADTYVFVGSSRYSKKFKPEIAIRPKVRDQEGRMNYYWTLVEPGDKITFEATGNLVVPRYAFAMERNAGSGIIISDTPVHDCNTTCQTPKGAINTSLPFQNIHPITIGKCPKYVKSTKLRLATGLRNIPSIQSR
- Type: binding, Influenza A virus A/California/04/2009 (H1N1)
Field 'label' (enum: class 1 / class 0). Set to class 1 when ΔTm (°C), crude peptide is strictly under 1 °C; else class 0.

>  <substance>
Cyclo(Ac-yTYYVLLQRWPPVWAPC)G-NH2 [B1]

>  <answerLabel>
class 0

$$$$
>  <substance>
Cyclo(Ac-yVIAIRPFSQLCWRWVC)G-NH2 [S7]

>  <answerLabel>
class 1

$$$$
>  <substance>
Cyclo(Ac-YYSWFEATGRFRAIFSC)G-NH2 [R4]

>  <answerLabel>
class 0

$$$$
>  <substance>
Cyclo(Ac-YRFLWSSFSSQPSWVHC)G-NH2 [B5]

>  <answerLabel>
class 0

$$$$
>  <substance>
Cyclo(Ac-yRQWFYLGKYYC)TWSCCG-NH2 [S4]

>  <answerLabel>
class 1

$$$$
>  <substance>
Cyclo(Ac-yLIWPSFNQNAKIIFPC)G-NH2 [B9]

>  <answerLabel>
class 0

$$$$
>  <substance>
Cyclo(Ac-YYKALWINATFYQSLVC)G-NH2 [R5]

>  <answerLabel>
class 0

$$$$
>  <substance>
Cyclo(Ac-YSYFDVNTIFWFSPFC)CG-NH2 [S9]

>  <answerLabel>
class 1

$$$$
>  <substance>
Cyclo(Ac-yVKIVWFEGTLNTTWFC)G-NH2 [S6]

>  <answerLabel>
class 0

$$$$
>  <substance>
Cyclo(Ac-YSNNRNWLPHDWQVLYC)G-NH2 [B6]

>  <answerLabel>
class 0

$$$$
>  <substance>
Cyclo(Ac-ySYFIWANFQTEPYFVC)G-NH2 [B2]

>  <answerLabel>
class 1

$$$$
>  <substance>
Cyclo(Ac-yIVLAWKGHYLESRWTC)G-NH2 [S8]

>  <answerLabel>
class 0

$$$$
>  <substance>
Cyclo(Ac-yAFWIRWTNHYRSGFTC)G-NH2 [B4]

>  <answerLabel>
class 0

$$$$
>  <substance>
Cyclo(Ac-yRVFNISWDGEYRSWWC)G-NH2 [B3]

>  <answerLabel>
class 1

$$$$
>  <substance>
Cyclo(Ac-yFLC)TKWNYGRWYLFYCG-NH2 [R1]

>  <answerLabel>
class 0

$$$$
>  <substance>
Cyclo(Ac-yFVNWYWHGEKLFYRYC)G-NH2 [R2]

>  <answerLabel>
class 0

$$$$
>  <substance>
Cyclo(Ac-yIRLFWINGNLVSEWNC)G-NH2 [S2]

>  <answerLabel>
class 0

$$$$

Where do the numbers come from? From paper PMC9486808.
